# target.or.system: FAPα (Homo sapiens, UniProt Q12884)
# Construct: purchased R&D Systems (Bio-techne) 930-ADB-010
# Sequence (Q12884 1-760): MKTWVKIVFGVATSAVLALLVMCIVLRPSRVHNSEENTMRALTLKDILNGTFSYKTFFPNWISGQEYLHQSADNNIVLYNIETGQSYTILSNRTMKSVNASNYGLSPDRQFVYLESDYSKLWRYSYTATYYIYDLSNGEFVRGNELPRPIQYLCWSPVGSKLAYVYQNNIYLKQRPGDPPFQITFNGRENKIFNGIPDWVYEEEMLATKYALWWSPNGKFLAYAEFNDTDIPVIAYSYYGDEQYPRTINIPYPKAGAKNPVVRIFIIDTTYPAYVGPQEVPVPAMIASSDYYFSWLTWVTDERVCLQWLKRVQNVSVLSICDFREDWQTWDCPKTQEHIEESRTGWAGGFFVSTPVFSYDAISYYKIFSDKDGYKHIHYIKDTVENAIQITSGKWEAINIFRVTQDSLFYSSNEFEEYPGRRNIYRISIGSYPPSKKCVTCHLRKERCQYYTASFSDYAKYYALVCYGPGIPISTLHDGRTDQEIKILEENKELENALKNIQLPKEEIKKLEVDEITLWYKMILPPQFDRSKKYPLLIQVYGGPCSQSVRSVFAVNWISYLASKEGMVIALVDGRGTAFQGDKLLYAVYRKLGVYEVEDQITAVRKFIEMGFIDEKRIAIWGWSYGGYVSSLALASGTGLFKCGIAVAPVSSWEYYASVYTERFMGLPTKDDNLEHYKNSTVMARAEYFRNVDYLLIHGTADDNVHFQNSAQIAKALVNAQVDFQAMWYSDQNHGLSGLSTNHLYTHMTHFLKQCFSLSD
# measurement.notes: 30-mer tandem linker library MSP-MS, FAPα
# Format: biochemical
quantity.measured: Relative efficiency of 30-mer peptide degradation by FAPα

>  <sequence.content>
RGPLAQKLKSSALFKSSFPGGPAGIGGGGK [Alu30-7]

>  <result>
not cleaved

$$$$
>  <sequence.content>
GGGALFKSSFPLAQKLKSSPGGPAGIGGGR [Alu30-8]

>  <result>
not cleaved

$$$$

FYI, the data here is from patent US11739132B2.
